Please provide measured growth inhibition for the entries that follow.
Experiment: NCI Yeast Anticancer Drug Screen. Data for the CLN2oe strain (AID 163);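 further: 0% = growth of vehicle-only control cultures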
Conditions: S. cerevisiae CLN2oe strain, at 3.7 µM, active compounds read high
Experimental: Growth inhibition of yeast strains with defined genetic alterations is measured as a screen for potential anti-cancer activity. Selected strains with alterations in DNA damage repair or cell cycle control were exposed to compounds and growth inhibition was measured relative to vehicle treated controls. The strain used in this assay is CLN2oe
The panel holds about 79,000 compounds, 15% with a hit somewhere; the sample as a whole holds those more often.
The reply should contain only the number, in %.

What measured growth inhibition goes with O=C(O)C1CCCCC1c1c2ccc(=O)c(O)c-2oc2c(O)c(O)ccc12 (stereo not given) ?
28

Another: CCN(CC)CCNc1ccc([N+](=O)[O-])c2nc3ccc(OC)cc3c(N)c12
15

Another: CC1CCN(CCC(=O)c2ccc(Cl)cc2)CC1
17

Another: CCCCCCCCCCCCCC[N+](C)(CC(=O)[O-])Cc1ccccc1 (stereo not given)
19

Another: CCCCCCCCCCCCCCCCCCN(C)CC(COP(=O)([O-])OCC[N+](C)(C)C)OC (stereo not given)
6

---

test: NCI Yeast Anticancer Drug Screen. Data for the mlh1 strain (AID 171);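 further: 0% = growth of vehicle-treated control cultures of the same strain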; details: S. cerevisiae mlh1 strain growth inhibition; at 1.2 µM; active compounds read high
The panel holds about 79,000 compounds, 15% with a hit somewhere; the sample as a whole holds those more often.
Assay metric: growth inhibition (%)
The reply should contain only the number, in %.

What measured growth inhibition goes with S=C(Nc1ccc(Cl)cc1)SC1CCCCC1 ?
4

Another: CC(C)/C(Cl)=N\OC(=O)Nc1ccccc1F
3

Another: NC(=O)NN=C(CS)CS
0

Another: c1ccc2c(c1)C(=NCCCN1CCCCCC1)c1cccn1-2
-2

Another: COc1cc(C2SCC(=O)N2c2ccc(-c3ccc(-n4c(-c5ccccc5)nc5ccccc5c4=O)cc3)cc2)cc(OC)c1OC (configuration not stated)
-1

Another: CN(C)CCn1c2c3ccccc3ccc2c2oc(=O)c3ccccc3c21
-10

Another: S=c1[nH]nc(Nc2ccc(Cl)cc2)s1
-7

Another: CN(C)Cc1cc(N=Nc2ccc(Cl)cc2)cc(CN(C)C)c1O
14

Another: Cc1ccc(NC(=O)/C(Cl)=C(\Cl)C(=O)O)cc1C
1

Another: CCN(CC)CCN1C(=O)c2cccc3cc(OC)cc(c23)C1=O
-24

Another: Fc1ccc(NC(=S)SCc2ccc3c(c2)OCO3)cc1F
-29

Another: CC(Br)C(=O)c1ccc2cc(Br)c3ccccc3c2c1 (configuration not stated)
4

---

assay: NCI Yeast Anticancer Drug Screen. Data for the wt1 strain (AID 149);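 further: 0% = growth of vehicle-treated wt1 cultures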; details: S. cerevisiae wt1 strain (SPY 50644) growth inhibition; at 11.0 µM; active compounds read high
Compounds without any hit were thinned out: in the full panel of roughly 79,000, 15% have a hit. The source made the active and inactive calls. Cut-off read from the data, not from the text of the source: active = growth inhibition above about 70%; inactive = the rest.
Assay metric: growth inhibition

What measured growth inhibition goes with CN=C(N)N/N=C/c1ccc2c(c1)Cc1ccccc1-2 ?
4% (inactive)

Another: NC(=NCc1ccccc1)N/N=C\c1ccnc2ccccc12
-2% (inactive)

Another: CCOC(=O)[C@H]1Nc2ccccc2C2c3ccccc3CC21 (stereo partly specified)
0% (inactive)

Another: Cn1c(=O)c(-c2ccccc2)c(N=[N+]=[N-])c2ccccc21
-25% (inactive)

Another: CC(C)(C)c1nc2c(o1)C(=O)c1ccccc1C2=O
-5% (inactive)

Another: C#CCCCc1ccccc1
-28% (inactive)

Another: Fc1ccc(NC(=S)SCc2ccc3c(c2)OCO3)cc1F
66% (inactive)

Another: Cc1nc(-[n+]2nc(-c3ccncc3)nn2-c2ccccc2)sc1C
-14% (inactive)

Another: CN(Cc1cnc2nc(N)nc(N)c2n1)c1ccc(C(=O)N[C@@H](CCC(=O)O)C(=O)O)cc1
-3% (inactive)

Another: Cc1c(C(Cc2ccccc2N(C)C(=O)/C=C\C(=O)O)c2c[nH]c3ccccc23)c2ccccc2n1C (stereo unspecified)
-7% (inactive)

Another: COc1ccc(C2c3cc4c(cc3OC(C)(O)C2C)OCO4)c(OC)c1 (stereo unspecified)
-2% (inactive)

Another: O=C1c2cc([N+](=O)[O-])ccc2-c2cccc(F)c21
8% (inactive)

Another: O=C(OCCN1CCCCCC1)C(c1ccsc1)C1CCCCC1 (stereo unspecified)
16% (inactive)

Another: CC(C)C1=CC2=C[C@H](O)[C@H]3C(C)(C)CCC[C@]3(C)C2=C(O)C1=O
99% (active)

Another: O=C(/C=C\c1ccc(Cl)cc1Cl)c1cccs1
-5% (inactive)

Another: CCc1ccc(NS(=O)(=O)c2ccccc2)c([N+](=O)[O-])c1
2% (inactive)

Another: O=[N+]([O-])c1cc2no[n+]([O-])c2cc1N1CCCCC1
99% (active)

Another: N/C(=N\OC(=O)NC(Cl)=C(Cl)Cl)c1cc(C(F)(F)F)cc(C(F)(F)F)c1
-19% (inactive)

Another: CNC(=O)OCc1c(COC(=O)NC)c(-c2ccc(Cl)c(Cl)c2)n2c1CCC2
-48% (inactive)

Another: BrCC[P+](c1ccccc1)(c1ccccc1)c1ccccc1
-4% (inactive)

Another: COc1ccc(N=C2C(=O)Nc3ccc(Br)cc32)cc1
9% (inactive)

Another: CCCCCCCCCCCC1=C(O)C(=O)C=C(O)C1=O
64% (inactive)

Another: OC1(c2ccccc2)CSC2=Nc3ccccc3C3CCN1N23 (stereo unspecified)
-89% (inactive)

Another: NCCNc1ccc(NCCN)c2c1C(=O)c1c(O)ccc(O)c1C2=O
7% (inactive)

Another: COc1cc2c(c(OC)c1OC)-c1c(cc3c(c1OC)OCO3)CC(C)C(C)(O)C2OC(=O)c1ccccc1 (stereo unspecified)
-10% (inactive)

Another: O=[N+]([O-])c1cc(CCl)ccc1CCl
30% (inactive)

Another: Cc1ccc(S(=O)(=O)NCCSS(=O)(=O)c2ccc(C)cc2)cc1
28% (inactive)

Another: [N-]=N[N+]#I1OC(C(F)(F)F)(C(F)(F)F)c2ccccc21
99% (active)

Another: O=CNc1ccc2c(c1)C(=O)c1ccccc1-2
8% (inactive)

Another: CC(=O)[O][Bi]([c]1ccccc1)[c]1ccccc1
23% (inactive)

Another: CC1=NN(c2cccc(Cl)c2)C(=O)C1
-22% (inactive)

Another: O=[N+]([O-])c1cccc([N+](=O)[O-])c1S(=O)(=O)c1ccccc1
67% (inactive)

Another: CC(O)C(O)C(O)C(/C=N\Nc1ccccc1)=N/Nc1ccccc1 (stereo unspecified)
13% (inactive)

Another: CCC(=O)c1cccc2ccccc12
3% (inactive)

Another: CCN(CC)C(=S)N/N=C(/C)c1cccc(/C(C)=N\NC(=S)N(CC)CC)n1
11% (inactive)

Another: O=C(N=Nc1ccccc1Cl)NNc1ccccc1Cl
0% (inactive)

Another: O=C(NNc1ccnc2cc(Cl)ccc12)/C(=C\c1ccccc1Cl)NC(=O)c1ccccc1
6% (inactive)

Another: N#C/C(=C\c1cccc(OCc2ccccc2)c1)c1ccc([N+](=O)[O-])cc1
-22% (inactive)

Another: CC1CCN(CCC(=O)c2ccc(Cl)cc2)CC1
-1% (inactive)

Another: CC[C@@]1(O)C(=O)OCc2c1cc1n(c2=O)Cc2cc3c(N)cccc3nc2-1
7% (inactive)

Another: COC(=O)C1=C(C)NC(C)=C(C(=O)OCCCN2CCC(c3ccccc3)(c3ccccc3)CC2)C1c1cccc([N+](=O)[O-])c1 (stereo unspecified)
69% (inactive)

Another: O=C1CSc2cc([N+](=O)[O-])ccc2N1
5% (inactive)

Another: CCCc1cc(C(=O)OCC)cc(CCC)c1O
-9% (inactive)

Another: CCCCN1C(=O)N(c2ccc(OCC)cc2)C2N(CCCC)C1C(C)(C)C2(C)C (stereo unspecified)
9% (inactive)

Another: CCN(CC)CCN1C(=O)c2cccc3cc(OC)cc(c23)C1=O
-3% (inactive)

Another: COC(=O)CSSCc1ccc([N+](=O)[O-])cc1
3% (inactive)

---

Assay: NCI Yeast Anticancer Drug Screen. Data for the mec2-1 strain (AID 157)
Details: S. cerevisiae mec2-1 strain, at 50.0 µM, active compounds read high
Method: Growth inhibition of yeast strains with defined genetic alterations is measured as a screen for potential anti-cancer activity. Selected strains with alterations in DNA damage repair or cell cycle control were exposed to compounds and growth inhibition was measured relative to vehicle treated controls. The strain used in this assay is mec2-1
About 79,000 compounds went through this panel and 15% of them were active in at least one assay; those are over-represented in the sample as a whole.
Please provide measured growth inhibition for the entries that follow.
The reply should contain only the number, in %.

What measured growth inhibition goes with CC1=C(C)Cc2c(O)ccc(O)c2C1 ?
45.8

Another: C/C(=N\NC(=S)SCc1ccccc1)c1ccccn1
90.2

Another: CN(C)c1ccc(Sc2ccc3nc(N)nc(N)c3c2)cc1
89.3

Another: O=C1CSc2cc([N+](=O)[O-])ccc2N1
-18.1

Another: NNc1c(F)c(F)cc(F)c1F
33.1

Another: COC(=O)C1=C(C(=O)OC)C2(C)C=CC1O2 (stereo not drawn)
86.8

Another: Cc1ccc(CSC(N)=Nc2ccccc2)cc1C
24.2

Another: CCOC(=O)c1cnc2cc(C(F)(F)F)ccc2c1N=[N+]=[N-]
20.2

Another: CN=C(N)N/N=C/c1ccc2c(c1)Cc1ccccc1-2
23.1

Another: O=C(CCCN1CCC(O)(c2ccc(Cl)cc2)CC1)c1ccc(F)cc1
77.7

Another: O=[N+]([O-])CC(SCc1ccccc1)c1ccc2c(c1)OCO2 (stereo not drawn)
91.7

Another: CC(C)NC(=O)OCc1c(COC(=O)NC(C)C)c(-c2ccc(Cl)c(Cl)c2)n2c1CCC2
47.6

Another: CC(=O)Oc1cc(-c2cc(OC(C)=O)c(OC(C)=O)c3ccccc23)c2ccccc2c1OC(C)=O
82.6

Another: O=C(O)c1cccc(-c2c3ccc(=O)cc-3oc3cc(O)ccc23)c1
23.1

Another: O=C1C=CC(=Nc2ccc3c(c2)Cc2cc(NC(=O)C(F)(F)F)ccc2-3)O1
96

Another: CC1(C)[C@@H]2CC[C@]1(C)[C@H](OC(=O)CSC#N)C2
98

Another: [N-]=[N+]=NC1=C(c2ccccn2)C(=O)c2cccc3cccc1c23
63.8

Another: O=C(NCCCNCCCNC(=O)c1cc(-c2ccccc2)nc2ccccc12)c1cc(-c2ccccc2)nc2ccccc12
37.7

Another: CC1(Cl)CC(O)C2(CC1Br)C1(C)OC1C1OC1(Br)C2(C)C (stereo not drawn)
59.2

Another: COP(=O)(OC)/C(=C\C1=CN(C(c2ccccc2)(c2ccccc2)c2ccccc2)CN1)NC=O
98.3

Another: O=C1Nc2ccc(Cl)c(I)c2C1=O
62.4

Another: CCCS(=O)(=O)Nc1ccc(Nc2c3ccccc3nc3ccccc23)c(OC)c1
12.8

Another: Cc1ccc(CCC2=CCCc3c2ccc2ccccc32)cc1
6.45
